- assayed target: proMMP13(1-268) (SEQ ID NO:7) (Homo sapiens)
- Construct: 6×-histidine tag (C)
- run description: ThermoFluor binding assay with proMMP13(1-268)
quantity name: log10(Kd) (log10 of the value in nM)
// do not treat as linear: log10 of Kd, unit nM

INSERT INTO assay_data (compound, quantity_name, experimental_value) VALUES
  ('Cc1ccn2c(-c3csc(Nc4cc(C(N)=O)ccc4OC(C)C)n3)c(C)nc2c1 [Example 7]', 'log10(Kd)', 3.08);

Inquiry: Look up and report log10(Kd), with proMMP13(1-268) (SEQ ID NO:7) (Homo sapiens) as system, for Cc1nc2ccc(Cl)cn2c1-c1csc(Nc2cc(C(N)=O)ccc2OC(C)C)n1 [Example 6]
Reply text: 3.04

Inquiry: Look up and report log10(Kd), with proMMP13(1-268) (SEQ ID NO:7) (Homo sapiens) as system, for CCOc1ccc(S(N)(=O)=O)cc1Nc1nc(-n2c(C)nc3ccccc32)cs1 [Example 5]
Reply text: 3.68

Inquiry: Look up and report log10(Kd), with proMMP13(1-268) (SEQ ID NO:7) (Homo sapiens) as system, for CC(C)Oc1ccc(C(N)=O)cc1Nc1nc(-c2nc3ccccc3n2C)cs1 [Example 4]
Reply text: 4.11

Inquiry: Look up and report log10(Kd), with proMMP13(1-268) (SEQ ID NO:7) (Homo sapiens) as system, for Cc1c(-c2csc(Nc3cc(C(N)=O)ccc3OC(C)C)n2)sc2ccccc12 [Example 3]
Reply text: 3.28

----------
A collection of compounds and their measured Kd
- assayed target: proMMP9(20-445;ΔFnII) (SEQ ID NO:6) (Homo sapiens, UniProt P14780, DEL216-390)
- Construct: start methionine (N)
- Sequence (P14780 with tags, fused parts or gaps DEL216-390): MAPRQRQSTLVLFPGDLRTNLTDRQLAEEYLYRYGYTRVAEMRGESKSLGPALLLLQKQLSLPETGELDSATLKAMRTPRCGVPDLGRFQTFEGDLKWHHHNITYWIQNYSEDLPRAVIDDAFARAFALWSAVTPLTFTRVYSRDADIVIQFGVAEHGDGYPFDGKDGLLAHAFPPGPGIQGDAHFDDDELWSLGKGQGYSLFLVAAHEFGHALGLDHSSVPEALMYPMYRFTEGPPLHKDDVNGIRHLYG
- run description: ThermoFluor binding assay with proMMP9(20-445;ΔFnII)
Entry rule: numbers only, all in nM.

Past entries and their recorded results:
INSERT INTO assay_data (compound_string, unit_abbrev, experimental_value) VALUES
  ('CC(C)Oc1ccc(S(N)(=O)=O)cc1Nc1nc(-c2ccc3[nH]cnc3c2)cs1', 'nM', 91),
  ('Cc1nc2ccc(-c3csc(Nc4cc(S(N)(=O)=O)ccc4OC(C)C)n3)cc2n1C', 'nM', 170),
  ('Cc1nc2cc(-c3csc(Nc4cc(S(N)(=O)=O)ccc4OC(C)C)n3)ccc2n1C', 'nM', 360),
  ('COc1ccc(S(N)(=O)=O)cc1Nc1nc(-c2ccc3c(c2)ncn3C)cs1', 'nM', 4800);

Inquiry: State, in one line, measured Kd of Cn1ncc2cc(-c3csc(Nc4cc(C(N)=O)ccc4OC(F)(F)F)n3)ccc21
Reply text: 270

Inquiry: State, in one line, measured Kd of COc1ccc(C(N)=O)cc1Nc1nc(-c2ccc3c(c2)ncn3C)cs1
Reply text: 320
